Hello, the source for this data is ChEMBL document CHEMBL1201862, in case you need it.

System: CCRF-CEM
assay name: NCI tumour cell line growth inhibition, 48 h
Active and inactive are the calls of the source. No stated cut-off is given here; in the data, active = GI50 up to about 1.1 µM and inactive = higher.
assay endpoint: GI50

Incoming: Return reported GI50. Input molecule: "CS(=O)(=O)Oc1cccc(/C=N/N=C(\N)NO)c1"
Outgoing: 23.9 µM (inactive)

Incoming: Return reported GI50. Input molecule: "Cc1cccc(C)c1NC(=O)CCc1nnc2s/c(=C\c3ccc(Cl)cc3)c(=O)n12"
Outgoing: > 100 µM (inactive)

Incoming: Return reported GI50. Input molecule: "CC(C)(CO)CNc1cc(Cl)nc(N)n1"
Outgoing: > 100 µM (inactive)

Incoming: Return reported GI50. Input molecule: "C[N+](C)([O-])Cc1cccc(NC(=O)c2ccc(C(=O)Nc3cccc(C[N+](C)(C)[O-])c3)cc2)c1"
Outgoing: > 100 µM (inactive)

Incoming: Return reported GI50. Input molecule: "COc1ccccc1C(=O)c1c(N2CCCCC2)c(=O)c1=O"
Outgoing: > 100 µM (inactive)

Incoming: Return reported GI50. Input molecule: "COc1ccc(/C=C/c2cc(OC)c(OC(C)=O)c(OC)c2)cc1"
Outgoing: 30.8 µM (inactive)

Incoming: Return reported GI50. Input molecule: O=C1C2CC(Cl)C(SSC3CC4C(=O)N(SC(Cl)(Cl)C(Cl)Cl)C(=O)C4CC3Cl)CC2C(=O)N1SC(Cl)(Cl)C(Cl)Cl (stereo not drawn)
Outgoing: 0.249 µM (active)

Incoming: Return reported GI50. Input molecule: "COc1cc(C(=O)NO)ccc1O"
Outgoing: > 100 µM (inactive)

* * *

Kindly state GI50 for each of the entries shown.
Tested on: OVCAR-8
assay name: NCI tumour cell line growth inhibition, 48 h
The source made the active and inactive calls. Cut-off read from the data, not from the text of the source: active = GI50 up to about 1.1 µM and inactive = higher.

Incoming: Return reported GI50. Input compound: CCOc1cc(NC(C)=O)ccc1C(=O)NN1C(=O)CSC1c1ccc(O)c(OC)c1 (stereo unspecified)
Outgoing: 23.9 µM (inactive)

Incoming: Return reported GI50. Input compound: "COc1ccc(C(c2ccccc2C(=O)O)c2ccc(OC)c3ccccc23)c2ccccc12"
Outgoing: 10.5 µM (inactive)

Incoming: Return reported GI50. Input compound: "O=C(O)c1c2c(cc3c(=O)c4ccccc4[nH]c13)CCCC2"
Outgoing: > 100 µM (inactive)

Incoming: Return reported GI50. Input compound: Cc1ccc(C2=Nc3ccccc3[S+]([O-])C(c3ccc4c(c3)OCO4)C2)cc1 (stereo unspecified)
Outgoing: 20.5 µM (inactive)

Incoming: Return reported GI50. Input compound: Nc1ccn(C2OC(COP(=O)(O)O)C(O)C2O)c(=O)n1 (stereo unspecified)
Outgoing: 2.47 µM (inactive)

Incoming: Return reported GI50. Input compound: Nc1nc(=O)n(C2CC(O)C(CO)O2)c2nc(-c3ccc(-c4ccccc4)cc3)cnc12 (stereo unspecified)
Outgoing: 67.9 µM (inactive)

Incoming: Return reported GI50. Input compound: Cc1ccccc1C1CC(c2ccccc2)=NO1 (stereo unspecified)
Outgoing: > 100 µM (inactive)

Incoming: Return reported GI50. Input compound: "CC(=O)Oc1ccc2c3c1[C@H]1O[C@H]1c1cccc(c1-3)[C@@H]1O[C@H]21"
Outgoing: 4.22 µM (inactive)

Incoming: Return reported GI50. Input compound: O=C(Cc1ccccc1)N/N=C(/c1nc2ccc([N+](=O)[O-])cc2nc1O)C(O)c1ccc(C(O)/C(=N/NC(=O)Cc2ccccc2)c2nc3ccc([N+](=O)[O-])cc3nc2O)cc1 (stereo unspecified)
Outgoing: 80.4 µM (inactive)

Incoming: Return reported GI50. Input compound: "COc1cc(C(=O)N(C(=S)OCc2ccccn2)c2ccccc2)cc(OC)c1OC"
Outgoing: 62.2 µM (inactive)

Incoming: Return reported GI50. Input compound: "COc1cc2c(/C=C3/C(=O)Nc4ccccc43)c(Cl)n(Cc3ccc(Cl)cc3)c2cc1C"
Outgoing: 0.299 µM (active)

Incoming: Return reported GI50. Input compound: "Cc1ccc(S(=O)(=O)NNC(=S)Nc2cccc3ccccc23)cc1"
Outgoing: 37.5 µM (inactive)

Incoming: Return reported GI50. Input compound: "COc1ccc(Cn2c3c(cc(OC(C)=O)c2=O)Cc2ccccc2-3)cc1"
Outgoing: 7.64 µM (inactive)

Incoming: Return reported GI50. Input compound: COc1ccc2c(c1)N(CCC1CCCCN1C)c1ccccc1S2 (stereo unspecified) [OXYRIDAZINE]
Outgoing: 15 µM (inactive)

Incoming: Return reported GI50. Input compound: "O=S(=O)(N/N=C/c1ccc(Cl)cc1Cl)c1ccccc1"
Outgoing: 71.4 µM (inactive)

Incoming: Return reported GI50. Input compound: "Clc1ccccc1-c1nn2c(CCCCCCCCc3nnc4sc(-c5ccccc5Cl)nn34)nnc2s1"
Outgoing: > 100 µM (inactive)
